Consider the following sequences and their measured apparent KD of K4 kissing-loop reporter readings.
- System: K4 kissing-loop RNA reporter;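 further: bound reporter read as fluorescence of individual clusters on recovered sequencing chips by microscopy, with normalized cluster intensities fitted with a binding model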
- method.summary: apparent KD of K4 kissing-loop reporter; higher = weaker reporter binding
- experimental.context: Eterna round: R107; input ligand: none

{"sequence.data": "AGUACAAUGGCGGCCGCCACUCAAUGGGCGACCGAAAGGUCGCAUCACUCAGUGAUGUUGAGUGAGAGGACCGGGCCUUUGUACA [Omei KL Tryp B SS B v8]", "target.of.assay": "K4 kissing-loop RNA reporter", "apparent KD of K4 kissing-loop reporter, nM": 611}
{"sequence.data": "GGAUGGUAGGCGGCCGCCACUAAAUGUGAACACAUACAAGCCAGUGAUGUUGGUAUGAUGGACAAUAGGACCGGGCCUAGAUAGA [Exclusion - Tryptophan B (Freestyle 7)]", "target.of.assay": "K4 kissing-loop RNA reporter", "apparent KD of K4 kissing-loop reporter, nM": 555}
{"sequence.data": "GCCAGUGAUGUUGGCAUUUCGAGCCAUGAAGGAGCGCACGGAAGUGCAGGUAGGUCGCAUGGUACUUAGGAUAUUAUCCUAAGUA [Antearxe]", "target.of.assay": "K4 kissing-loop RNA reporter", "apparent KD of K4 kissing-loop reporter, nM": 224}
{"sequence.data": "GCAAAGGCCCAUCGGAAUUCGAGACCAGCACGAGGACCGGUACGGCCGCCACUCGUGCAGUGAUGUUGCACGAAUGGGAAACCGC [Oninanso]", "target.of.assay": "K4 kissing-loop RNA reporter", "apparent KD of K4 kissing-loop reporter, nM": 125}
{"sequence.data": "CGCAGUGAUGUUGCUAUUAUUCUUGAUUAACGAGGACCGGUACGGCCGCCACUCGGUUUCUAUCUGAUCCAGCGUUUUGUUGAGU [#23 K4 Tryptophan A Exclusion]", "target.of.assay": "K4 kissing-loop RNA reporter", "apparent KD of K4 kissing-loop reporter, nM": 638}
{"sequence.data": "UGGUUCAAUACGGCCGCCACUGGUGAGUGAUGUUUACCGUCUAUAUCAUGUGUCGAGAGCGCUAUCAGGACCGGGUAGGGACCGU [theeternabot_exclusion_KL_Trp_B_42]", "target.of.assay": "K4 kissing-loop RNA reporter", "apparent KD of K4 kissing-loop reporter, nM": 721}
